# Target System: T1, Soluble TSHR (22-260) protein (human, UniProt P16473 22-260)
# T1 construct: range 22-260
# Test Description: SPR (Biacore T200, 25 C), antibody captured on anti-human Fc, soluble TSHR (22-260) as analyte, 1:1 fit;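 note: antibodies captured at 0.1 ug/mL on a CM5 sensor chip bearing anti-human Fc, with HBS-EP+ running buffer at pH 7.4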
# maps each entry to its Kd
The reply should be a number in nM, with the unit left off.

Take a look at these entries with their results.
Binder: TSHB-1 (antibody, V domains shown) VH: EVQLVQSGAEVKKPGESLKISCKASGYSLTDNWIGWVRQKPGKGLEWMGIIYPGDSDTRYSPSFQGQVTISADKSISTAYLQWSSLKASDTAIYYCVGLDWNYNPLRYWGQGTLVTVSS VL: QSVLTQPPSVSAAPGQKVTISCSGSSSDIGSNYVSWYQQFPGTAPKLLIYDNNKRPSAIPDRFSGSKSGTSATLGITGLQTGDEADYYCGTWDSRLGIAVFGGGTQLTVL
Kd [nM]: 1.7

Binder: TSHB-6 (antibody, V domains shown) VH: EVQLVQSGAEVKKPGESLKISCKASGYSLNDNWIGWVRQKPGKGLEWMGIIYPGDSDTRYSPSFQGQVTISADKSISTAYLQWSSLKASDTAIYYCVGLDWNYNPLRYWGQGTLVTVSS VL: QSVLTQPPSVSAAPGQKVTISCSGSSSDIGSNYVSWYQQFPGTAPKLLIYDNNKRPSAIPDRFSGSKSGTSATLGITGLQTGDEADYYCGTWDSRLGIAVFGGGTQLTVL
Kd [nM]: 3.73

Next up:
I have this binder here, TSHB-18 (antibody, V domains shown) VH: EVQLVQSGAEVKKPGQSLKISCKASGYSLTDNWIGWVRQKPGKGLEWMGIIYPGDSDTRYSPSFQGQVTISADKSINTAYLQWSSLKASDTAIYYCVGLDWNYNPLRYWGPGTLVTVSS VL: QSVLTQPPSVSAAPGQKVTISCSGSSTDIGSNYVSWYQQLPGTAPKLLIYDNNKRPSGIPDRFSGSKSGTSATLGITGLQTGDEADYYCGTWDSRLGIAVFGGGTQLTVL , and I need its recorded Kd.
2.94
